Where these numbers come from: patent US20070148201A1

Catalogue of binders with associated Kd
# tested target: T1, type I horse ferritin (horse, UniProt P02791 2-175; Q8MIP0 2-182, limits assumed)
# T1 construct: the natural protein is a shell of light and heavy chains
# T1 sequence (P02791 2-175 limits assumed, chain 1 of 2): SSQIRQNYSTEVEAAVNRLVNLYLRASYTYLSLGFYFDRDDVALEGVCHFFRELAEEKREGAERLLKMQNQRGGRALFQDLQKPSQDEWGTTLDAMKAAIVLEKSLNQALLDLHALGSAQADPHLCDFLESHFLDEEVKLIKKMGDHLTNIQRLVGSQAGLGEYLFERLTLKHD
# T1 sequence (Q8MIP0 2-182 limits assumed, chain 2 of 2): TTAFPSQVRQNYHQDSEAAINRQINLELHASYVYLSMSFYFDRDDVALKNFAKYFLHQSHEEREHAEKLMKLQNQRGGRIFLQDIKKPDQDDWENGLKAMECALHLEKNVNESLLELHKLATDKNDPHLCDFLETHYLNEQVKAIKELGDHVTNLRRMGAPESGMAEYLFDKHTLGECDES
# test name: ELISA, ferritin coated on plate, mutein titrated from 1000 nM, anti-T7-HRP detection, apparent KD from curve fit
Return type: number; implicit unit nM.

# annotated cases, reported Kd shown
{"columns": ["binder", "uom", "Kd"],
 "data": [
  ["BBP mutein Fer-O20 (designed binder, Tested as expressed from pBBP47: C-terminal T7 tag followed by Strep-tag II) DVYHDGACPEVKPVDNFDWSQYHGKWWEVAKCPSGKGRAGKCGWAEFTPEGKSVKVSRYDVIPAPELFMEGTAYPVGDPKIGKIYHSRTNKGLTKKTVFNVLSTDNKNYIIGYSCKYGEDQKGHKDHVWVLSRSMVLTGEAKTAVENYLIGSPVVDSQKLVYSDFSEAACKVNN", "nM", 49],
  ["BBP mutein Fer-N21 (designed binder, Tested as expressed from pBBP47: C-terminal T7 tag followed by Strep-tag II) DVYHDGACPEVKPVDNFDWSQYHGKWWEVAKYPSNRGSKGKCGWAEYTPEGKSVKVSRYDVIPRLEAFMEGTAYPVGDSKIGKIYHSRTSKGKTKKTVFNVLSTDNKNYIIGYSCIYNERYKGHYDHVWVLSRSMVLTGEAKTAVENYLIGSPVVDSQKLVYSDFSEAACKVNN", "nM", 29],
  ["BBP mutein Fer-P4 (designed binder, Tested as expressed from pBBP47: C-terminal T7 tag followed by Strep-tag II) DVYHDGACPEVKPVDNFDWSQYHGKWWEVAKYPSKGGEKGKCGWAEYTPEGKSVKVSRYDVILSSEPFMEGTAYPVGDSKIGKIYHSRTKKGETKKTVFNVLSTDNKNYIIGYSCGYCECRKGHADHVWVLSRSMVLTGEAKTAVENYLIGSPVVDSQKLVYSDFSEAACKVNN", "nM", 31],
  ["BBP mutein Fer-N22 (designed binder, Tested as expressed from pBBP47: C-terminal T7 tag followed by Strep-tag II) DVYHDGACPEVKPVDNFDWSQYHGKWWEVAKYPNGGESPGKCGWAEYTPEGKSVKVSNYHVIKKRERFIEGTAYPVGDSKIGKICHSLTWSGLTKENVFNVLSTDNKNYIIGYYCKYKERKKGHGDFVWVLSRSMVLTGEAKTAVENYLIGSPVVDSQKLVYSDFSEAACKVNN", "nM", 45]
]}

Proceeding to the next binder to report its Kd.
For the binder BBP mutein Fer-I21 (designed binder, Tested as expressed from pBBP47: C-terminal T7 tag followed by Strep-tag II) DVYHDGACPEVKPVDNFDWSQYHGKWWEVAKYPNQKEKWGKCGWAEYTPEGKSVKVSNYHVIKRPERFIEGTAYPVGDSKIGKIYHSLTRLGKTKENVFNVLSTDNKNYIIGYYCLYPEGWKGHKDFVWVLSRSMVLTGEAKTAVENYLIGSPVVDSQKLVYSDFSEAACKVNN , give its measured Kd value.
26
